B1: tRNA (parent)
chain: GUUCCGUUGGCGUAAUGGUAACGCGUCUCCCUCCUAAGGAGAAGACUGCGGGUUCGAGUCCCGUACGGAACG

variants of: B1; assay: yeast fitness relative to wild type (ratio to wild type); higher = fitter; tRNA-Arg(CCU), competitive growth, 37 C, YPD
Variants at the floor of the assay were thinned out.
reportedProperty: yeast fitness
Reply with just the number.

# count of solved cases: 6
primarySequence	yeast fitness
GUUCCGUUGGCGUAAUGGUAACGCGUCUCCCUCCUAAGGAGGAGACUGCGGGUUCGAGUCCCGUAAGGAACG [A42G C66A]	0.599
GUUCCGUAGGCGUUGUGGUAACGCGUCUCCCCCCUAAGGAGAAGACUGCGGGUUCGUGUCCCGUACGGAACG [U8A A14U A15G U32C A57U]	0.599
GUUCCGUUGGCGUAAUGGUAGCGCGUCUCCCUCCUAAGGAGAAGACUGCGGGUUCGAGUCCGGUACGGAACG [A21G C62G]	1.02
GUUCCGUUGGCGUAAUGGUAACGCGUCUCUCUCCUAAGGAGAAGAUUGCAGGUUCGAGUCCCGUACGGGACG [C30U C46U G50A A69G]	0.605
GUUCCGUUGGCGUAAUGGUAACGCGUCUCCGUCCUAAGGAGAAGACUGCGGGUUCGAGUCGGGUACGGAACG [C31G C61G C62G]	0.514
GUUGCGUUGGCGUAAUGGUAACGCGUCUCCCUCCUAAGGAGAAGACUGAGGGUUCGAGUCCCGUACGGAACG [C4G C49A]	0.541

Please report the recorded yeast fitness for GUUCCGUUGGCGUAAUGGUAACGCGUCUCUCUCCUCAGGAGAAGACUGCGGGUUCGAGUCCCGUCCGGAACG [C30U A36C A65C] . 0.615

Please report the recorded yeast fitness for GUUCCGUCGGCGUAAUGGUAAUGCGUCUCCCUCAUAAGGAGAAGACUGCGGGUUCGAGUCCCGUACGGAACG [U8C C22U C34A] . 0.952

Please report the recorded yeast fitness for GUUCCGUUGGCGUAAUGGUAACGCGUCUACCUCCUAAGGAGAAGACUGCGGGUUCGAGUCCCGUACCGAACG [C29A G67C] . 0.646
